FYI, the data here is from ChEMBL document CHEMBL3751811.

System: Staphylococcus aureus
ASSAY_SUMMARY: Antibacterial activity against clinical isolates of Staphylococcus aureus EMRSA-16 assessed as growth inhibition after 20 hrs by broth dilution method
Assay type: functional
MEASUREMENT_PARAMETERS: EMRSA-16, 20 h
VALUE_TYPE: MIC90

- COMPOUND: "COc1cccc(-c2nc3ccc(-c4ccc5nc(-c6cccc(OC)c6)[nH]c5c4)cc3[nH]2)c1"
  ASSAYED_SYSTEM: "Staphylococcus aureus"
  VALUE_TYPE: "MIC90"
  RECORDED_VALUE: "> 128 µg/mL"
- COMPOUND: "c1cc(-c2nc3cc(-c4ccc5[nH]c(-c6ccncc6)nc5c4)ccc3[nH]2)ccn1 [RIDINILAZOLE]"
  ASSAYED_SYSTEM: "Staphylococcus aureus"
  VALUE_TYPE: "MIC90"
  RECORDED_VALUE: "> 128 µg/mL"
- COMPOUND: "Cc1ccc(-c2nc3ccc(-c4ccc5nc(-c6ccc(C)cc6)[nH]c5c4)cc3[nH]2)cc1"
  ASSAYED_SYSTEM: "Staphylococcus aureus"
  VALUE_TYPE: "MIC90"
  RECORDED_VALUE: "0.06 µg/mL"
- COMPOUND: "Nc1ccc(-c2nc3cc(-c4ccc5[nH]c(-c6ccc(N)cc6)nc5c4)ccc3[nH]2)cc1"
  ASSAYED_SYSTEM: "Staphylococcus aureus"
  VALUE_TYPE: "MIC90"
  RECORDED_VALUE: "0.5 µg/mL"

---

Entries and their MIC90 values follow.
System: Staphylococcus aureus
ASSAY_SUMMARY: Antibacterial activity against Staphylococcus aureus ATCC 29213 assessed as growth inhibition after 20 hrs by broth dilution method
Format: functional
MEASUREMENT_PARAMETERS: ATCC 29213, 20 h

- SMI: "Cc1ccc(-c2nc3ccc(-c4ccc5nc(-c6ccc(C)cc6)[nH]c5c4)cc3[nH]2)cc1"
  ASSAYED_SYSTEM: "Staphylococcus aureus"
  COMPARISON_SYMBOL: "="
  MIC90, µg/mL: 0.03
- SMI: "c1cc(-c2nc3cc(-c4ccc5[nH]c(-c6ccncc6)nc5c4)ccc3[nH]2)ccn1"
  ASSAYED_SYSTEM: "Staphylococcus aureus"
  COMPARISON_SYMBOL: ">"
  MIC90, µg/mL: 128
- SMI: "COc1cccc(-c2nc3ccc(-c4ccc5nc(-c6cccc(OC)c6)[nH]c5c4)cc3[nH]2)c1"
  ASSAYED_SYSTEM: "Staphylococcus aureus"
  COMPARISON_SYMBOL: ">"
  MIC90, µg/mL: 128
- SMI: "Nc1ccc(-c2nc3cc(-c4ccc5[nH]c(-c6ccc(N)cc6)nc5c4)ccc3[nH]2)cc1"
  ASSAYED_SYSTEM: "Staphylococcus aureus"
  COMPARISON_SYMBOL: "="
  MIC90, µg/mL: 0.125

---

Test system: Escherichia coli
ASSAY_SUMMARY: Antibacterial activity against Escherichia coli NCTC 10418 assessed as growth inhibition
Type: functional
Entries and their MIC90 values follow.

- SMI: "Nc1ccc(-c2nc3cc(-c4ccc5[nH]c(-c6ccc(N)cc6)nc5c4)ccc3[nH]2)cc1"
  MIC90: "> 64 µg/mL"
- SMI: "Cc1ccc(-c2nc3ccc(-c4ccc5nc(-c6ccc(C)cc6)[nH]c5c4)cc3[nH]2)cc1"
  MIC90: "> 64 µg/mL"
- SMI: "COc1cccc(-c2nc3ccc(-c4ccc5nc(-c6cccc(OC)c6)[nH]c5c4)cc3[nH]2)c1"
  MIC90: "> 64 µg/mL"
- SMI: "c1cc(-c2nc3cc(-c4ccc5[nH]c(-c6ccncc6)nc5c4)ccc3[nH]2)ccn1"
  MIC90: "> 16 µg/mL"

---

ASSAYED_SYSTEM: DNA gyrase (Staphylococcus aureus, UniProt P0A0K8+P20831)
Sequence (P0A0K8 whole entry): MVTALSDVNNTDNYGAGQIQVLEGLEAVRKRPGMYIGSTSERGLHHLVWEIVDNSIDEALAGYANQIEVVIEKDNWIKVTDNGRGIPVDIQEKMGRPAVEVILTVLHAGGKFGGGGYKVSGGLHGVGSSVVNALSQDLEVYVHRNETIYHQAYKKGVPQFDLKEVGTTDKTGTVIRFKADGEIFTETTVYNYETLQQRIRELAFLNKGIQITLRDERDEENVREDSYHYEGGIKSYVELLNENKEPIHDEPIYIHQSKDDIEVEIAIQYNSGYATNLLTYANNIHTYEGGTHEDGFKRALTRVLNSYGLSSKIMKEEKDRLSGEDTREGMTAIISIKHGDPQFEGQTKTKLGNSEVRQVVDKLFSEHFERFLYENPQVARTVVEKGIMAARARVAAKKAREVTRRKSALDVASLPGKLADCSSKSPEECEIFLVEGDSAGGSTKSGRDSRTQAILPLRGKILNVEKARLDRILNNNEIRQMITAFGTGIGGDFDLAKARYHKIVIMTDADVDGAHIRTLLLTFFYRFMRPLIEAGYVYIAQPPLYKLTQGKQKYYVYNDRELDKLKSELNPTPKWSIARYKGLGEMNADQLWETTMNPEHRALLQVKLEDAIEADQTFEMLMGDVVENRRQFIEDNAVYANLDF
Sequence (P20831 whole entry): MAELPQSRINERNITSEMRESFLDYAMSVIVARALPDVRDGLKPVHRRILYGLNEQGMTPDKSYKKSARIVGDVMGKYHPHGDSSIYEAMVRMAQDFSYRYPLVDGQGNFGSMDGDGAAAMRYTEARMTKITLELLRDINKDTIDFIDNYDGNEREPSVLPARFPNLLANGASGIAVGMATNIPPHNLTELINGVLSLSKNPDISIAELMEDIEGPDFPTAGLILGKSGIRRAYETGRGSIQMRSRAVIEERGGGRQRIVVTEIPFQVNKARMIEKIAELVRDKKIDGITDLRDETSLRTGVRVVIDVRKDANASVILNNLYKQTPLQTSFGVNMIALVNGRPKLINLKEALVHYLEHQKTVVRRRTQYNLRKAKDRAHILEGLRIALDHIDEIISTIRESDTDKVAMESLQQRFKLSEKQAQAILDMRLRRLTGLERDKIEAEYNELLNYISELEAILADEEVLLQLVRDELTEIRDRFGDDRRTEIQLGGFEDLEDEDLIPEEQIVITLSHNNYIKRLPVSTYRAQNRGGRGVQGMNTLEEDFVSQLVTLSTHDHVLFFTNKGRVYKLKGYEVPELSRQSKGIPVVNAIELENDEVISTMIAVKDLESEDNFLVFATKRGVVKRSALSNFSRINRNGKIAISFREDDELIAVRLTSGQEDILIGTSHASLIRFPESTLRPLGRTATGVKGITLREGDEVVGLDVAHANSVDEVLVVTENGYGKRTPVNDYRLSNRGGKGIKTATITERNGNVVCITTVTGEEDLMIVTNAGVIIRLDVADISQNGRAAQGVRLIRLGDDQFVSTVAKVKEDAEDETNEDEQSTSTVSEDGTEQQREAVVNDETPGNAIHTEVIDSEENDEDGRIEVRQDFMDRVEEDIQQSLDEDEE
ASSAY_SUMMARY: Inhibition of Staphylococcus aureus DNA gyrase assessed as reduction in enzyme-catalyzed supercoiling of relaxed circular pBR322 DNA incubated for 30 mins by agarose gel electrophoresis
VALUE_TYPE: IC50 (µM)

- SMI: "Cc1ccc(-c2nc3ccc(-c4ccc5nc(-c6ccc(C)cc6)[nH]c5c4)cc3[nH]2)cc1"
  COMPARISON_SYMBOL: "="
  RECORDED_VALUE: 5.6
- SMI: "c1cc(-c2nc3cc(-c4ccc5[nH]c(-c6ccncc6)nc5c4)ccc3[nH]2)ccn1"
  COMPARISON_SYMBOL: ">"
  RECORDED_VALUE: 50
- SMI: "Nc1ccc(-c2nc3cc(-c4ccc5[nH]c(-c6ccc(N)cc6)nc5c4)ccc3[nH]2)cc1"
  COMPARISON_SYMBOL: "="
  RECORDED_VALUE: 0.3
- SMI: "COc1cccc(-c2nc3ccc(-c4ccc5nc(-c6cccc(OC)c6)[nH]c5c4)cc3[nH]2)c1"
  COMPARISON_SYMBOL: "="
  RECORDED_VALUE: 8.8

---

Entries and their pIC50 values follow.
ASSAYED_SYSTEM: DNA gyrase subunit A/DNA gyrase subunit B (Mycobacterium tuberculosis (strain ATCC 25618 / H37Rv), UniProt P9WG45+P9WG47)
Sequence (P9WG45 whole entry): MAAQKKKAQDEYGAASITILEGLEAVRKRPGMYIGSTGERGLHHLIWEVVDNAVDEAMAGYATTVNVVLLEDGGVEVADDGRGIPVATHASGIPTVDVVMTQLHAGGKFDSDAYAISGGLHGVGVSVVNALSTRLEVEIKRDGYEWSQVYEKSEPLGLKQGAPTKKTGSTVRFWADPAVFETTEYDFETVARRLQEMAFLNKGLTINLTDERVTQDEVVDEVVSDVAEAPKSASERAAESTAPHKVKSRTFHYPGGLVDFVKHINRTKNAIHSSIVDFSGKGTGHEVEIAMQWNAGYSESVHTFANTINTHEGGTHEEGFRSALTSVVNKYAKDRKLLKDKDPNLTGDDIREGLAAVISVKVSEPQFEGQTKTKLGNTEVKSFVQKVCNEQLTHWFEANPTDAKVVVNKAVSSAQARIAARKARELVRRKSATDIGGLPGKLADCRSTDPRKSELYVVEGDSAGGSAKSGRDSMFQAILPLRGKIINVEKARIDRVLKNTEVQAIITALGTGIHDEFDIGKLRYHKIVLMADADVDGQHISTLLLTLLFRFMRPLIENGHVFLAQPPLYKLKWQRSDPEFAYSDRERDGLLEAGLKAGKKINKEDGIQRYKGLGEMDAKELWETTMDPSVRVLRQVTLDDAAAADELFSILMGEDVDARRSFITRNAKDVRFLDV
Sequence (P9WG47 whole entry): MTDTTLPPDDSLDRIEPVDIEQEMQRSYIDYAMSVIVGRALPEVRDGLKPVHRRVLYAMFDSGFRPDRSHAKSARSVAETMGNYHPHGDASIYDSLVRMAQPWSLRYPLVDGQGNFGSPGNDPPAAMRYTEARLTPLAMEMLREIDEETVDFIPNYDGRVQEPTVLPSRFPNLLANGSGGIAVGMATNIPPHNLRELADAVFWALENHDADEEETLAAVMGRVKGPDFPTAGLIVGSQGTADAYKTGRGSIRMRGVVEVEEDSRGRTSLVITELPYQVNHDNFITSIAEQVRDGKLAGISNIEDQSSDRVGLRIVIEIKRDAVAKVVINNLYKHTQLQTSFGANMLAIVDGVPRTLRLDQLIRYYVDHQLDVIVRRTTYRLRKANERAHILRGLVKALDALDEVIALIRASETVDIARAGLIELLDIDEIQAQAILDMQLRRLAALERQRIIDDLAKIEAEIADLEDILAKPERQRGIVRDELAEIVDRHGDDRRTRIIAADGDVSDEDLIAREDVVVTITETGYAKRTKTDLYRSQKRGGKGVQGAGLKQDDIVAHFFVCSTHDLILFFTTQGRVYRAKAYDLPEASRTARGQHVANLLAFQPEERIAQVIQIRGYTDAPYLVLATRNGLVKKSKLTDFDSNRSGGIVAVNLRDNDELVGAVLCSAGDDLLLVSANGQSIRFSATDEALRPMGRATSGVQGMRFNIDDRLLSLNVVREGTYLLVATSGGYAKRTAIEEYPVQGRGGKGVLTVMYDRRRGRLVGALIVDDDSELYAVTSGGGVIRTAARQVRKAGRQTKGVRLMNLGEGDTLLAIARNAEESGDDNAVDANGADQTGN
ASSAY_SUMMARY: Inhibition of Mycobacterium tuberculosis H37Rv DNA gyrase supercoiling activity
pIC50: −log10 of the molar value.
VALUE_TYPE: pIC50

- SMI: "COc1cccc(-c2nc3ccc(-c4ccc5nc(-c6cccc(OC)c6)[nH]c5c4)cc3[nH]2)c1"
  RECORDED_VALUE: 4.54
- SMI: "Nc1ccc(-c2nc3cc(-c4ccc5[nH]c(-c6ccc(N)cc6)nc5c4)ccc3[nH]2)cc1"
  RECORDED_VALUE: 4.95
- SMI: "Cc1ccc(-c2nc3ccc(-c4ccc5nc(-c6ccc(C)cc6)[nH]c5c4)cc3[nH]2)cc1"
  RECORDED_VALUE: 5.70

---

ASSAY_SUMMARY: Inhibition of Staphylococcus aureus topoisomerase 4 assessed as inhibition of decatenation of catenated kinetoplast DNA after 30 mins by agarose gel electrophoresis
VALUE_TYPE: IC50

- SMI: "Nc1ccc(-c2nc3cc(-c4ccc5[nH]c(-c6ccc(N)cc6)nc5c4)ccc3[nH]2)cc1"
  VALUE_TYPE: "IC50"
  RECORDED_VALUE: "15.5 µM"
- SMI: "COc1cccc(-c2nc3ccc(-c4ccc5nc(-c6cccc(OC)c6)[nH]c5c4)cc3[nH]2)c1"
  VALUE_TYPE: "IC50"
  RECORDED_VALUE: "70.3 µM"
- SMI: "c1cc(-c2nc3cc(-c4ccc5[nH]c(-c6ccncc6)nc5c4)ccc3[nH]2)ccn1"
  VALUE_TYPE: "IC50"
  RECORDED_VALUE: "> 50 µM"
- SMI: "Cc1ccc(-c2nc3ccc(-c4ccc5nc(-c6ccc(C)cc6)[nH]c5c4)cc3[nH]2)cc1"
  VALUE_TYPE: "IC50"
  RECORDED_VALUE: "50.9 µM"
